In this section we review reported Selectivity values for a set of compounds.
Biological target: Beta-2 adrenergic receptor and beta-3 adrenergic receptor (Homo sapiens) (UniProt P07550+P13945)
Test: Selectivity as the ratio of Ki of beta-2 adrenergic receptor to the Ki of beta-3 adrenergic receptor.
Assay type: protein assay
Just the number, please, no unit attached.

Solved cases below.
| COMPOUND | MEASURED VALUE |
| --- | --- |
| CS(=O)(=O)Nc1cc([C@@H](O)CNC(c2ccc(F)cc2)c2ccc(F)cc2)ccc1O | 2 |
| CS(=O)(=O)Nc1cc(C(O)CNC(Cc2ccccc2)c2ccccc2)ccc1O (stereo not given) | 3 |
| CS(=O)(=O)Nc1cc(C(O)CNC(CCCCCO)Cc2ccccc2)ccc1O (stereo not given) | 0.5 |
| CCc1ccc(C(Cc2ccccc2)NCC(O)c2ccc(O)c(NS(C)(=O)=O)c2)cc1CC (stereo not given) | 0.5 |

Shift focus to the following entry.
// sample CC(=O)Nc1ccc(C(NC[C@H](O)c2ccc(O)c(NS(C)(=O)=O)c2)c2ccc(NC(C)=O)cc2)cc1 , its Selectivity was 3

// provenance: ChEMBL document CHEMBL1133857
